- experimentSummary: Retention time of the compound using 0.1% TFA in water and 0.1% TFA in acetonitrile-water (80:20 v/v) as eluents by RP-HPLC analysis
- Format: physicochemical
Where a SMILES comes first, the peptide text is derived from it. The star is where a group is joined. X1 = COc1cccc2c1C(=O)c1c(O)c3c(c(O)c1C2=O)C[C@@](O)(/C(C)=N/OCC(=O)*)C[C@@H]3O[C@H]1C[C@H](N)[C@H](O)[C@H](C)O1
readoutLabel: Retention_time (min)

INSERT INTO results (compound, readoutnumber) VALUES
  ('COc1cccc2c1C(=O)c1c(O)c3c(c(O)c1C2=O)C[C@@](O)(/C(C)=N/OCC(=O)N[C@@H](CC(C)C)C(=O)N[C@@H](CCCNC(=N)N)C(=O)N[C@@H](CCCNC(=N)N)C(=O)N[C@@H](Cc1ccc(O)cc1)C(=O)N[C@H](C(=O)N[C@@H](Cc1cnc[nH]1)C(=O)N[C@@H](CC(C)C)C(=O)N[C@@H](Cc1ccccc1)C(=O)N[C@@H](Cc1ccc(O)cc1)C(=O)N1CCC[C@H]1C(=O)N[C@H](C(N)=O)[C@@H](C)O)C(C)C)C[C@@H]3O[C@H]1C[C@H](N)[C@H](O)[C@H](C)O1 (X1-LRRYVHLFYPT-NH2)', 31.6);

---

- Tested on: HT-29
- experimentSummary: Cytostatic activity against human HT-29 cells preincubated for 24 hrs under serum free condition followed by compound washout and further incubation for 48 hrs in presence of serum by MTT assay
- Format: functional, cell-based
pIC50: −log10 of the molar value. Where a SMILES comes first, the peptide text is derived from it. The star is where a group is joined. X1 = COc1cccc2c1C(=O)c1c(O)c3c(c(O)c1C2=O)C[C@@](O)(/C(C)=N/OCC(=O)*)C[C@@H]3O[C@H]1C[C@H](N)[C@H](O)[C@H](C)O1
readoutLabel: pIC50

INSERT INTO results (molecule, result) VALUES
  ('COc1cccc2c1C(=O)c1c(O)c3c(c(O)c1C2=O)C[C@@](O)(/C(C)=N/OCC(=O)N[C@@H](CC(C)C)C(=O)N[C@@H](CCCNC(=N)N)C(=O)N[C@@H](CCCNC(=N)N)C(=O)N[C@@H](Cc1ccc(O)cc1)C(=O)N[C@H](C(=O)N[C@@H](Cc1cnc[nH]1)C(=O)N[C@@H](CC(C)C)C(=O)N[C@@H](C)C(=O)N[C@@H](Cc1ccc(O)cc1)C(=O)N[C@@H](C)C(=O)N[C@H](C(N)=O)[C@@H](C)O)C(C)C)C[C@@H]3O[C@H]1C[C@H](N)[C@H](O)[C@H](C)O1 (X1-LRRYVHLAYAT-NH2)', '4.55 to 4.62');

---

Reported IC50 values follow for various molecules
- Test system: HT-29
- experimentSummary: Cytostatic activity against human HT-29 cells preincubated for 24 hrs under serum free condition followed by compound washout and further incubation for 48 hrs in presence of serum by MTT assay
- Type: functional, cell-based
Where a SMILES comes first, the peptide text is derived from it. The star is where a group is joined. X1 = COc1cccc2c1C(=O)c1c(O)c3c(c(O)c1C2=O)C[C@@](O)(/C(C)=N/OCC(=O)*)C[C@@H]3O[C@H]1C[C@H](N)[C@H](O)[C@H](C)O1
readoutLabel: IC50 (µM)

INSERT INTO measurements (molecule, assaytarget, readoutlabel, valueunit, valuecomparator, readoutnumber) VALUES
  ('COc1cccc2c1C(=O)c1c(O)c3c(c(O)c1C2=O)C[C@@](O)(/C(C)=N/OCC(=O)N[C@@H](CC(C)C)C(=O)N[C@@H](CCCNC(=N)N)C(=O)N[C@@H](CCCNC(=N)N)C(=O)N[C@@H](Cc1ccc(O)cc1)C(=O)N[C@H](C(=O)N[C@@H](Cc1cnc[nH]1)C(=O)N[C@@H](CC(C)C)C(=O)N[C@@H](CCC(=O)O)C(=O)N[C@@H](Cc1ccc(O)cc1)C(=O)N[C@@H](C)C(=O)N[C@H](C(N)=O)[C@@H](C)O)C(C)C)C[C@@H]3O[C@H]1C[C@H](N)[C@H](O)[C@H](C)O1 (X1-LRRYVHLEYAT-NH2)', 'HT-29', 'IC50', 'µM', '=', 29.5),
  ('COc1cccc2c1C(=O)c1c(O)c3c(c(O)c1C2=O)C[C@@](O)(/C(C)=N/OCC(=O)N[C@@H](CC(C)C)C(=O)N[C@@H](CCCNC(=N)N)C(=O)N[C@@H](CCCNC(=N)N)C(=O)N[C@@H](Cc1ccc(O)cc1)C(=O)N[C@H](C(=O)N[C@@H](Cc1cnc[nH]1)C(=O)N[C@@H](CC(C)C)C(=O)N[C@@H](Cc1ccccc1)C(=O)N[C@@H](Cc1ccc(O)cc1)C(=O)N[C@@H](CO)C(=O)N[C@H](C(N)=O)[C@@H](C)O)C(C)C)C[C@@H]3O[C@H]1C[C@H](N)[C@H](O)[C@H](C)O1 (X1-LRRYVHLFYST-NH2)', 'HT-29', 'IC50', 'µM', '=', 17.7),
  ('COc1cccc2c1C(=O)c1c(O)c3c(c(O)c1C2=O)C[C@@](O)(/C(C)=N/OCC(=O)N[C@@H](CC(C)C)C(=O)N[C@@H](CCCNC(=N)N)C(=O)N[C@@H](CCCNC(=N)N)C(=O)N[C@@H](Cc1ccc(O)cc1)C(=O)N[C@H](C(=O)N[C@@H](Cc1cnc[nH]1)C(=O)N[C@@H](CC(C)C)C(=O)NCC(=O)N[C@@H](C)C(=O)N[C@@H](C)C(=O)N[C@H](C(N)=O)[C@@H](C)O)C(C)C)C[C@@H]3O[C@H]1C[C@H](N)[C@H](O)[C@H](C)O1 (X1-LRRYVHLGAAT-NH2)', 'HT-29', 'IC50', 'µM', '>', 100),
  ('COc1cccc2c1C(=O)c1c(O)c3c(c(O)c1C2=O)C[C@@](O)(/C(C)=N/OCC(=O)N[C@@H](CC(C)C)C(=O)N[C@@H](CCCNC(=N)N)C(=O)N[C@@H](CCCNC(=N)N)C(=O)N[C@@H](Cc1ccc(O)cc1)C(=O)N[C@H](C(=O)N[C@@H](Cc1cnc[nH]1)C(=O)N[C@@H](C)C(=O)NCC(=O)N[C@@H](Cc1ccc(O)cc1)C(=O)N[C@@H](C)C(=O)N[C@H](C(N)=O)[C@@H](C)O)C(C)C)C[C@@H]3O[C@H]1C[C@H](N)[C@H](O)[C@H](C)O1 (X1-LRRYVHAGYAT-NH2)', 'HT-29', 'IC50', 'µM', '>', 100),
  ('COc1cccc2c1C(=O)c1c(O)c3c(c(O)c1C2=O)C[C@@](O)(/C(C)=N/OCC(=O)N[C@@H](CC(C)C)C(=O)N[C@@H](CCCNC(=N)N)C(=O)N[C@@H](CCCNC(=N)N)C(=O)N[C@@H](Cc1ccc(O)cc1)C(=O)N[C@H](C(=O)N[C@@H](Cc1cnc[nH]1)C(=O)N[C@@H](CC(C)C)C(=O)N[C@@H](Cc1ccccc1)C(=O)N[C@@H](Cc1ccc(O)cc1)C(=O)N[C@@H](CC(C)C)C(=O)N[C@H](C(N)=O)[C@@H](C)O)C(C)C)C[C@@H]3O[C@H]1C[C@H](N)[C@H](O)[C@H](C)O1 (X1-LRRYVHLFYLT-NH2)', 'HT-29', 'IC50', 'µM', '=', 3.2);
